Target System: human Kv7.2+3 (Homo sapiens, UniProt O43525+O43526)
Protocol Summary: FLIPR-based characterization of Kv7.2+3 modulators (thallium influx)
Measurement Parameters: HEK293 cells over-expressing human Kv7.2+3; Tl+ influx, BTC-AM, FLIPR; relative to retigabine control responses
pEC50: −log10 of the molar value.
Property: pEC50

{"Chemical Smiles": "CC(C)(C)CC(=O)Nc1ccc(NCc2ccc(Cl)nc2)nc1N1CCCC1", "Experimental Result": 7.18}
{"Chemical Smiles": "O=C(Cc1cc(F)cc(F)c1)Nc1ccc(NCc2cccnc2)nc1N1CCCC1", "Experimental Result": 7.70}
{"Chemical Smiles": "O=C(Cc1cc(F)cc(F)c1)Nc1ccc(NCc2ccc(Cl)nc2)nc1N1CCCC1", "Experimental Result": 7.18}
